# Tested on: HL60 (leukemia)
# assayProcedure: In vitro cytotoxic activity MTT assay, HL60
# Type: cell-based
# protocolConditions: Homo sapiens, HL-60; cells exposed for 96 hours; 50% inhibition of cell proliferation; read-out: Cytotoxicity activity IC50, HL60 (leukemia)
endpoint: IC50 (nM)
One number for each entry, in nM.

What value of IC50 has been reported for the following compound? "Clc1cccc(Nc2c3cnccc3nc3c2nn2ccncc32)c1"
2900

----------
# Tested on: PC3 (prostate)
# assayProcedure: In vitro cytotoxic activity MTT assay, PC3
# Type: cell-based
# protocolConditions: Homo sapiens; cells exposed for 96 hours; 50% inhibition of cell proliferation; read-out: Cytotoxicity activity IC50, PC3 (prostate)
# Source text: Compounds 1-16 were screened for their in vitro cytotoxic activity utilizing a 3-(4,5-dimethyl-thiazol-2-yl)-2,5-diphenyltetrazolium bromide (MTT) assay against selected cancer human cell lines consisting of PC3 (prostate), HCT116 (colon), A375 (melanoma), H1299 (lung), MIAPaCa-2 (pancreas), HL60 (leukemia), MCF7 (breast), MDA-MB-231 (breast) (T. Mosmann, J. Immunol. Meth., 1983, 65, 55-63). […]
endpoint: IC50 (µM)
Answers are plain numbers, in µM.

What value of IC50 has been reported for the following compound? "Clc1cccc(Nc2c3cnccc3nc3c2nn2ccncc32)c1"
1.4

The reported measurements were obtained from patent US12129259B1.
